- SYSTEM_UNDER_TEST: human PTH1 receptor (Homo sapiens)
- TEST_SUMMARY: In vitro cAMP signal activity in HKRK-B7 cells (LLC-PK1 cells overexpressing the human PTH1 receptor)
- Format: cell-based
- CONDITION_LABEL: HKRK-B7 cells; compound at 1×10^−3 M; cAMP produced as percentage of that produced by hPTH(1-34) at 100 nM
Consider the following compounds; for each one, report its cAMP production activity (%).
Give bare numbers, in %.

Record excerpt, results attached:
O=C1NC(C2CCCCC2)=NC12CCN(S(=O)(=O)/C=C/C1CCCC1)CC2
35
CC(C)(C)CCN1CCCC(C2=NC3(CCN(S(=O)(=O)c4cccc(Cl)c4)CC3)C(=O)N2)C1 (stereo not shown)
16
O=C1NC(c2cccc(OC(F)(F)F)c2)=NC12CCN(S(=O)(=O)c1cccc(Cl)c1)CC2
31

Now consider a different compound.
cAMP production activity (%) in this record for Cc1cc2cc(C)c1CCS(=O)(=O)N1CCC3(CC1)N=C(CCCC/C=C/CCCCC(=O)N2C)NC3=O : 15

====

- SYSTEM_UNDER_TEST: human PTH1 receptor (Homo sapiens, UniProt Q03431)
- Sequence (Q03431 27-593): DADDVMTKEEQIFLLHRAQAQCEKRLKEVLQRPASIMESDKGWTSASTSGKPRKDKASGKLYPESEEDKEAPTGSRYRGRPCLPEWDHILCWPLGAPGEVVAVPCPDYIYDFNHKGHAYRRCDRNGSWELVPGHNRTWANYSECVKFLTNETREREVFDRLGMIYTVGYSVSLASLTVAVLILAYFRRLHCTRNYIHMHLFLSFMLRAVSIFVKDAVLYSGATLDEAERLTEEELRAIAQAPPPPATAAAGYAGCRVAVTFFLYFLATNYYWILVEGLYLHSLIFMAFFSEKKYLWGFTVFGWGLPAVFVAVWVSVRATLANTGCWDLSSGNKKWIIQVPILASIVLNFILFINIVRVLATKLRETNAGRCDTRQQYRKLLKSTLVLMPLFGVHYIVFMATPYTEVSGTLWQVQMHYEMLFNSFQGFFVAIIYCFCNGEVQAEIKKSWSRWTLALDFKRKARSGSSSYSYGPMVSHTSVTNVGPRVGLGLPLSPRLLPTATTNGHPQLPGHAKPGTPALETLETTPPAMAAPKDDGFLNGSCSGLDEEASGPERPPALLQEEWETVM
- TEST_SUMMARY: In vitro cAMP signal activity in HKRK-B7 cells (LLC-PK1 cells overexpressing the human PTH1 receptor)
- Type: cell-based
- CONDITION_LABEL: HKRK-B7 cells; compound at 1×10^−3 M; cAMP produced as percentage of that produced by hPTH(1-34) at 100 nM
MEASUREMENT_TYPE: cAMP production activity (%)
Give bare numbers, in %.

Record excerpt, results attached:
Cc1cc(C(=O)N(C)C)ccc1CCS(=O)(=O)N1CCC2(CC1)N=C(c1cccc(COC(C)C)c1)NC2=O [Compound 130]
65
Cc1cc(N2C[C@H](O)CC2=O)ccc1/C=C/S(=O)(=O)N1CCC2(CC1)N=C(c1cccc(C(F)(F)F)c1)NC2=O [Compound 220]
80

For every item in the list below, what is its measured cAMP production activity (%)?
1. Cc1cc(C(=O)N2CCC(C)(O)CC2)cc(C)c1/C=C/S(=O)(=O)N1CCC2(CC1)N=C(c1cc(OCC(F)(F)C(F)F)cc(C(F)(F)F)c1)NC2=O [Compound 1226]
2. Cc1cc(N(C)C(N)=O)cc(C)c1CCS(=O)(=O)N1CCC2(CC1)N=C(c1cccc(OC(F)(F)C(F)F)c1)NC2=O [Compound 1038]
3. Cc1cc(NC(=O)[C@@H](N)C(C)C)cc(C)c1/C=C/S(=O)(=O)N1CCC2(CC1)N=C(C1CCCCC1)NC2=O [Compound 735]
4. Cc1cc(N(C)C(=O)OC(C)(C)C)cc(C)c1CCS(=O)(=O)N1CCC2(CC1)N=C(C1CCCN1C(=O)OC(C)(C)C)NC2=O (stereo not shown) [Compound 1033]
5. Cc1cc(C(=O)N2CCC(C)(O)CC2)cc(C)c1/C=C/S(=O)(=O)N1CCC2(CC1)N=C(c1ccc(Cl)c(OC(C)(C)C(F)(F)F)c1)NC2=O [Compound 1210]
6. Cc1noc(C)c1-c1ccccc1CCS(=O)(=O)N1CCC2(CC1)N=C(C1CCCCC1)NC2=O [Compound 338]

// result
1. 51
2. 111
3. 32
4. 22
5. 86
6. 60
